# protocol.notes: ATG_BRE_CIS: Attagene CIS-FACTORIAL HepG2 Assay for human Bone Morphogenetic Protein (BMP) Response Element (BRE) (AID 2282933)
# measurement.setup: HepG2 BMP response element reporter, Attagene transcription factor profiling; actives raise or lower the signal
Calls of active or inactive are those of the source. The calls were made as follows: active = hit-call score of the fitted dose curve at least 0.9, where 1 is the maximum; inactive = score below 0.9.
experimental.readout: outcome

Consider the following illustrative entries.
CCCCC(C=O)CC (centres undefined)
inactive
CC(=O)OC/C=C(/C)CCC=C(C)C
inactive
CC(C)(CO)COC(=O)C(C)(C)CO
inactive
CCOC(=O)[C@H](O)[C@@H](O)C(=O)OCC
inactive
CCC[Si](OC)(OC)OC
inactive

Would you kindly share the measured outcome for C=CC(=O)OCC(C)OCC(C)OCC(C)OC(=O)C=C (centres undefined) ?
inactive

Field request: outcome | item: CCCCCCCC(=O)OCC(COC(=O)CCCCCCC)OC(=O)CCCCCCC
inactive

Sample CC(C)=CCl — what was its outcome?
inactive

Need outcome, item CCOC(=O)C1=NN(c2ccc(Cl)cc2Cl)C(C)(C(=O)OCC)C1 (centres undefined)
inactive

Quick one: outcome of CCC1(C)C(=O)N(Cl)C(=O)N1Cl (centres undefined) ?
inactive

Any idea what outcome was measured for CC1=NN(c2ccc(S(=O)(=O)O)cc2)C(=O)C1N=Nc1ccccc1 (centres undefined) ?
inactive
